Every entry's value here was drawn from ChEMBL document CHEMBL1131473.

assay: Compound at a dose of 10 mg/kg was orally administered to rats and Area under curve was reported; assay type: ADME, organism-based; parameters: dose 10 mg/kg, route oral; conditions: rat, in vivo, po
MEASUREMENT TYPE: AUC (ng·h/mL)

Examples with answers:
CCNC(=O)NCC(=O)N(C)c1ccc(Cl)c(COc2cccn3c(Br)c(C)nc23)c1Cl : 58900
CCCC(=O)NCC(=O)N(C)c1ccc(Cl)c(COc2cccn3c(Br)c(C)nc23)c1Cl : 11700

1 = Cc1nc2c(OCc3c(Cl)ccc(N(C)C(=O)CNC(=O)CN(C)C)c3Cl)cccn2c1Br
2 = CC(=O)NCC(=O)N(C)c1ccc(Cl)c(COc2cccn3c(Br)c(C)nc23)c1Cl.Cl
Parameter check: reported AUC is higher for which label, 1 or 2 ? Mark your selection by writing its label.
2

###

experiment: Compound at a dose of 10 mg/kg was orally administered to rats and maximum plasma concentration was reported; type: ADME, organism-based; parameters: dose 10 mg/kg, route oral; details: rat, po
MEASUREMENT TYPE: Cmax (ng/mL)

I = CC(=O)NCC(=O)N(C)c1ccc(Cl)c(COc2cccn3c(Br)c(C)nc23)c1Cl.Cl
II = Cc1nc2c(OCc3c(Cl)ccc(N(C)C(=O)CNC(=O)CN(C)C)c3Cl)cccn2c1Br
III = CCNC(=O)NCC(=O)N(C)c1ccc(Cl)c(COc2cccn3c(Br)c(C)nc23)c1Cl
IV = CCCC(=O)NCC(=O)N(C)c1ccc(Cl)c(COc2cccn3c(Br)c(C)nc23)c1Cl
# rank_down: sort by Cmax, max first In plain terms: list the labels in the order you were asked to.
III, IV, I, II

###

experiment: Compound at a dose of 10 mg/kg was orally administered to rats and Bioavailability was reported; assay type: ADME, organism-based; settings: rat, in vivo, po, read-out: BA
MEASUREMENT TYPE: bioavailability (%)

CCNC(=O)NCC(=O)N(C)c1ccc(Cl)c(COc2cccn3c(Br)c(C)nc23)c1Cl : 75

P = Cc1nc2c(OCc3c(Cl)ccc(N(C)C(=O)CNC(=O)CN(C)C)c3Cl)cccn2c1Br
Q = CCCC(=O)NCC(=O)N(C)c1ccc(Cl)c(COc2cccn3c(Br)c(C)nc23)c1Cl
Parameter check: reported bioavailability is higher for which label, P or Q ? Mark your selection by writing its label.
Q
(Q: 90%, P: 32.8%)

###

biological target: B2 bradykinin receptor (Cavia porcellus); assay: In vitro for inhibition of specific binding of [3H]BK (0.06 nM) to bradykinin receptor B2 in guinea pig ileum membrane preparations.
Sequence (O70526 whole entry): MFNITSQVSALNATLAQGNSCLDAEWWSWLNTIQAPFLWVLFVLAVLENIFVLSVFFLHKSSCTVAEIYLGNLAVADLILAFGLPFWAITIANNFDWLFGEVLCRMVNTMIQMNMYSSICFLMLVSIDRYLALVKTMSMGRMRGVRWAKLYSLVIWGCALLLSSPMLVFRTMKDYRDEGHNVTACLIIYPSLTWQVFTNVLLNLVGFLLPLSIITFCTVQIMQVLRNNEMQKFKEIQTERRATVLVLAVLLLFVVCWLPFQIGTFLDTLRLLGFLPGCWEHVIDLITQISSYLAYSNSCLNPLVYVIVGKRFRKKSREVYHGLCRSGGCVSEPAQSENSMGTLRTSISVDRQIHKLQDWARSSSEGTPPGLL
MEASUREMENT TYPE: IC50 (µM)

Cc1nc2c(OCc3c(Cl)ccc(N)c3Cl)cccn2c1Br : 1.5
CCCC(=O)NCC(=O)N(C)c1ccc(Cl)c(COc2cccn3c(Br)c(C)nc23)c1Cl : 0.0089
C#CCOCc1c(C)nc2c(OCc3c(Cl)cccc3Cl)cccn12 : 7.6
CC(=O)NCCC(=O)N(C)c1ccc(Cl)c(COc2cccn3c(Br)c(C)nc23)c1Cl : 0.81
CCN(C)c1ccc(Cl)c(COc2cccn3c(Br)c(C)nc23)c1Cl : 0.41

1 = Cc1nc2c(OCc3c(Br)cccc3Br)cccn2c1Cl
2 = CCC(=O)N(C)c1ccc(Cl)c(COc2cccn3c(Br)c(C)nc23)c1Cl
3 = Cc1nc2c(OCc3c(Cl)ccc(N(C)C(=O)CNS(C)(=O)=O)c3Cl)cccn2c1Br
4 = CCCNC(=O)NCC(=O)N(C)c1ccc(Cl)c(COc2cccn3c(Br)c(C)nc23)c1Cl
5 = Cc1cn2cccc(OCc3c(Cl)cccc3Cl)c2n1
Thanks in advance: please rank these 5 entries by IC50, highest to lowest. In plain terms: list the labels in the order you were asked to.
5, 1, 3, 2, 4

P = Cc1nc2c(OCc3c(Cl)ccc(Cl)c3Cl)cccn2c1Br
Q = Cc1nc2c(NCc3c(Cl)cccc3Cl)cccn2c1Cl
Of P versus Q , which is the one with smaller reported IC50? Mark your selection by writing its label.
P

a = CC(=O)N(C)c1ccc(Cl)c(COc2cccn3c(Br)c(C)nc23)c1Cl
b = COCC(=O)N(C)c1ccc(Cl)c(COc2cccn3c(Br)c(C)nc23)c1Cl
Parameter check: reported IC50 is higher for which label, a or b ? Mark your selection by writing its label.
b

P = CNC(=O)N(C)c1ccc(Cl)c(COc2cccn3c(Br)c(C)nc23)c1Cl
Q = CC(=O)N(C)CC(=O)N(C)c1ccc(Cl)c(COc2cccn3c(Br)c(C)nc23)c1Cl
Parameter check: reported IC50 is higher for which label, P or Q ? Mark your selection by writing its label.
Q

###

experiment: Compound at a dose of 10 mg/kg was orally administered to rats and Half-life value was reported; format: ADME, organism-based; parameters: dose 10 mg/kg, route oral; conditions: rat, in vivo, po
MEASUREMENT TYPE: half-life (min)

Cc1nc2c(OCc3c(Cl)ccc(N(C)C(=O)CNC(=O)CN(C)C)c3Cl)cccn2c1Br : 18
CCCC(=O)NCC(=O)N(C)c1ccc(Cl)c(COc2cccn3c(Br)c(C)nc23)c1Cl : 18
CCNC(=O)NCC(=O)N(C)c1ccc(Cl)c(COc2cccn3c(Br)c(C)nc23)c1Cl : 30
CC(=O)NCC(=O)N(C)c1ccc(Cl)c(COc2cccn3c(Br)c(C)nc23)c1Cl.Cl : 25.2

###

test system: Cavia porcellus; experiment: In vivo functional antagonistic activity against BK-induced bronchoconstriction in guinea pigs at an oral dose of 1 mg/kg.
MEASUREMENT TYPE: inhibition in vivo at 1 mg/kg (%)
Give just the number in %; leave the unit off.

Examples with answers:
CNC(=O)NCC(=O)N(C)c1ccc(Cl)c(COc2cccn3c(Br)c(C)nc23)c1Cl : 41.5
Cc1nc2c(OCc3c(Cl)ccc(N(C)C(=O)CNS(C)(=O)=O)c3Cl)cccn2c1Br : 48.4
CCNC(=O)NCC(=O)N(C)c1ccc(Cl)c(COc2cccn3c(Br)c(C)nc23)c1Cl : 57.2
CCC(=O)NCC(=O)N(C)c1ccc(Cl)c(COc2cccn3c(Br)c(C)nc23)c1Cl : 48.4
CCCNC(=O)NCC(=O)N(C)c1ccc(Cl)c(COc2cccn3c(Br)c(C)nc23)c1Cl : 62.4

Form field: reported inhibition in vivo at 1 mg/kg of `CCCC(=O)NCC(=O)N(C)c1ccc(Cl)c(COc2cccn3c(Br)c(C)nc23)c1Cl`
52.7

Form field: reported inhibition in vivo at 1 mg/kg of `CCCCC(=O)NCC(=O)N(C)c1ccc(Cl)c(COc2cccn3c(Br)c(C)nc23)c1Cl`
29.7

Form field: reported inhibition in vivo at 1 mg/kg of `Cc1nc2c(OCc3c(Cl)ccc(N(C)C(=O)CNC(=O)CN(C)C)c3Cl)cccn2c1Br`
72.4

Form field: reported inhibition in vivo at 1 mg/kg of `CC(=O)NCC(=O)N(C)c1ccc(Cl)c(COc2cccn3c(Br)c(C)nc23)c1Cl.Cl`
62.3

###

biological target: B2 bradykinin receptor (Cavia porcellus); test: In vitro for inhibition of specific binding of [3H]BK (0.06 nM) to bradykinin receptor B2 in guinea pig ileum membrane preparations.
pIC50: −log10 of the molar value.
MEASUREMENT TYPE: pIC50

Examples with answers:
COC(=O)N(C)c1ccc(Cl)c(COc2cccn3c(Br)c(C)nc23)c1Cl : 5.85
CCNC(=O)NCC(=O)N(C)c1ccc(Cl)c(COc2cccn3c(Br)c(C)nc23)c1Cl : 8.05
Cc1nc2c(OCc3c(Cl)cccc3Cl)cccn2c1CO : 5.12

a = CCCCC(=O)NCC(=O)N(C)c1ccc(Cl)c(COc2cccn3c(Br)c(C)nc23)c1Cl
b = Cc1nc2c(OCc3c(Cl)ccc(N(C)S(C)(=O)=O)c3Cl)cccn2c1Br
Of a versus b , which is the one with smaller reported pIC50? Mark your selection by writing its label.
b
(b: 5.68, a: 8.11)

a = Cc1nc2c(OCc3c(Cl)ccc(N(C)C(=O)CN)c3Cl)cccn2c1Br
b = CC(=O)Nc1ccc(Cl)c(COc2cccn3c(Br)c(C)nc23)c1Cl
c = Cc1nc2c(OCc3c(Cl)ccc(N(C)C(=O)CNC(=O)CN(C)C)c3Cl)cccn2c1Br
d = Cc1nc2c(OCc3c(Cl)cccc3Cl)cccn2c1Cl
e = CC(=O)NCC(=O)N(C)c1ccc(Cl)c(COc2cccn3c(Br)c(C)nc23)c1Cl
Thanks in advance: please rank these 5 entries by pIC50, highest to lowest. In plain terms: list the labels in the order you were asked to.
c, e, d, a, b

P = Cc1nc2c(OCc3c(F)cccc3Cl)cccn2c1Br
Q = COc1ccc(Cl)c(COc2cccn3c(Br)c(C)nc23)c1Cl
R = CCN(C(C)=O)c1ccc(Cl)c(COc2cccn3c(Br)c(C)nc23)c1Cl
S = CCc1cn2cccc(OCc3c(Cl)cccc3Cl)c2n1
Thanks in advance: please rank these 4 entries by pIC50, highest to lowest. In plain terms: list the labels in the order you were asked to.
R, Q, P, S
(R: 6.82, Q: 6.27, P: 5.82, S: 5.00)

1 = Cc1nc2c(OCc3c(F)cccc3F)cccn2c1Cl
2 = CC(=O)NC(C)C(=O)N(C)c1ccc(Cl)c(COc2cccn3c(Br)c(C)nc23)c1Cl (configuration not stated)
3 = Cc1nc2c(OCc3c(Cl)ccc([N+](=O)[O-])c3Cl)cccn2c1Br
Let's sort these by pIC50, smallest first. Go ahead? In plain terms: list the labels in the order you were asked to.
1, 2, 3
